Test system: WaGa
experiment: qHTS assay to identify novel small-molecules to repurpose for Merkel cell carcinoma treatment (AID 1296009); also: nearly all actives have a fitted effect of over 60% in size
details: MCC and control cell lines, CellTiter-Glo viability, 72 h; series mostly up to 46 µM
Inconclusive results are not listed. Active and inactive are the calls of the source. Calls follow the shape of the dose curve; as a rule, active = well fitted inhibition curve with a large enough effect; inconclusive = small, poorly fitted or top-dose-only effect; inactive = flat fitted curve, though single readings scatter.
Labels: 1.0 = active, 0.0 = inactive

>>> class("NC[C@H]1O[C@H](O[C@H]2[C@H](O)[C@@H](O[C@H]3O[C@H](CO)[C@@H](O)[C@H](N)[C@H]3O)[C@H](N)C[C@@H]2N)[C@H](N)[C@@H](O)[C@@H]1O")
0.0
>>> class("NC(=O)CC[C@@H]1NC(=O)[C@H](Cc2ccccc2)NC(=O)[C@H](Cc2ccc(O)cc2)NC(=O)CCSSC[C@@H](C(=O)N2CCC[C@H]2C(=O)N[C@@H](CCCN=C(N)N)C(=O)NCC(N)=O)NC(=O)[C@H](CC(N)=O)NC1=O")
0.0
>>> class("COC(=O)C1=C(C)NC(C)=C(C(=O)O[C@@H]2CCCN(Cc3ccccc3)C2)[C@@H]1c1cccc([N+](=O)[O-])c1")
1.0
>>> class("C#C[C@]1(O)CC[C@H]2[C@@H]3CCC4=CC(=O)CC[C@@H]4[C@H]3CC[C@@]21C")
0.0
>>> class("Cc1cc(=O)n(-c2ccccc2)n1C")
0.0
>>> class("COCc1c(C(C)C)nc(C(C)C)c(/C=C/[C@@H](O)C[C@@H](O)CC(=O)O)c1-c1ccc(F)cc1")
1.0
>>> class("CC(=O)OCC(=O)NCCCOc1cccc(CN2CCCCC2)c1")
0.0
>>> class("CCCCC(CC)CN=C(N)NC(N)=NCCCCCCN=C(N)NC(N)=NCC(CC)CCCC (stereo not given)")
1.0
>>> class("CC(C)COC(=O)c1ccc(N)cc1")
0.0
>>> class("C[C@@H]1C[C@H]2[C@@H]3C[C@H](F)C4=CC(=O)C(Cl)=C[C@]4(C)[C@@]3(F)[C@@H](O)C[C@]2(C)[C@@]1(O)C(=O)CO")
0.0
